Here, each record is paired with measured Bliss Volume data.
Test system: panel of breast cancer cell lines
test: Compound A with targeted agents and chemotherapies, 72-hour in vitro proliferation assays
Assay type: cell-based
measurement-context: MDA-MB-436 cells; Compound A × partner agent; 72-hour proliferation
quantity-kind: Bliss Volume

- N.N.O=C([O-])C1(C(=O)[O-])CCC1.[Pt+2] [Carboplatin]: 1.31
- N.N.[Cl][Pt][Cl] [Cisplatin]: 2.08
- CO[C@H]1C[C@@H]2CC[C@@H](C)[C@@](O)(O2)C(=O)C(=O)N2CCCC[C@H]2C(=O)O[C@H]([C@H](C)C[C@@H]2CC[C@@H](OCCO)[C@H](OC)C2)CC(=O)[C@H](C)/C=C(\C)[C@@H](O)[C@@H](OC)C(=O)[C@H](C)C[C@H](C)/C=C/C=C/C=C/1C [Everolimus]: 2.45
- C[C@]12CC[C@@H]3c4ccc(O)cc4C[C@@H](CCCCCCCCC[S+]([O-])CCCC(F)(F)C(F)(F)F)[C@H]3[C@@H]1CC[C@@H]2O (some centres unmarked) [Fulvestrant]: 1.52
- CC(=O)O[C@@]12CO[C@@H]1C[C@H](O)[C@@]1(C)C(=O)[C@H](O)C3=C(C)[C@@H](OC(=O)[C@H](O)[C@@H](NC(=O)OC(C)(C)C)c4ccccc4)C[C@@](O)([C@@H](OC(=O)c4ccccc4)[C@H]21)C3(C)C [Docetaxel]: 1.49

---

Test system: panel of breast cancer cell lines
test: Compound A with targeted agents and chemotherapies, 72-hour in vitro proliferation assays
Assay type: cell-based
measurement-context: MDA-MB-453 cells; Compound A × partner agent; 72-hour proliferation
Strictly below -1 in Loewe Volume: Criterion met. Otherwise: Criterion not met.

* CC(=O)O[C@@]12CO[C@@H]1C[C@H](O)[C@@]1(C)C(=O)[C@H](O)C3=C(C)[C@@H](OC(=O)[C@H](O)[C@@H](NC(=O)OC(C)(C)C)c4ccccc4)C[C@@](O)([C@@H](OC(=O)c4ccccc4)[C@H]21)C3(C)C | Criterion not met
* N.N.[Cl][Pt][Cl] [Cisplatin] | Criterion not met
* N.N.O=C([O-])C1(C(=O)[O-])CCC1.[Pt+2] | Criterion not met
* C[C@]12CC[C@@H]3c4ccc(O)cc4C[C@@H](CCCCCCCCC[S+]([O-])CCCC(F)(F)C(F)(F)F)[C@H]3[C@@H]1CC[C@@H]2O (some centres unmarked) | Criterion met

---

Test system: panel of breast cancer cell lines
test: Compound A with targeted agents and chemotherapies, 72-hour in vitro proliferation assays
Format: cell-based
measurement-context: T47D cells; combination of compound A with the named agent; 72-hour proliferation
quantity-kind: Loewe Volume

* N.N.O=C([O-])C1(C(=O)[O-])CCC1.[Pt+2] | 0.98
* CO[C@H]1C[C@@H]2CC[C@@H](C)[C@@](O)(O2)C(=O)C(=O)N2CCCC[C@H]2C(=O)O[C@H]([C@H](C)C[C@@H]2CC[C@@H](OCCO)[C@H](OC)C2)CC(=O)[C@H](C)/C=C(\C)[C@@H](O)[C@@H](OC)C(=O)[C@H](C)C[C@H](C)/C=C/C=C/C=C/1C | 2.69
* CC(=O)O[C@@]12CO[C@@H]1C[C@H](O)[C@@]1(C)C(=O)[C@H](O)C3=C(C)[C@@H](OC(=O)[C@H](O)[C@@H](NC(=O)OC(C)(C)C)c4ccccc4)C[C@@](O)([C@@H](OC(=O)c4ccccc4)[C@H]21)C3(C)C | 1.76
* N.N.[Cl][Pt][Cl] [Cisplatin] | 0.73
* C[C@]12CC[C@@H]3c4ccc(O)cc4C[C@@H](CCCCCCCCC[S+]([O-])CCCC(F)(F)C(F)(F)F)[C@H]3[C@@H]1CC[C@@H]2O (some centres unmarked) | 3.30

---

Here, each record is paired with measured Best CI data.
System: panel of breast cancer cell lines
test: Compound A with targeted agents and chemotherapies, 72-hour in vitro proliferation assays
Type: cell-based
measurement-context: MDA-MB-453 cells; Compound A × partner agent; 72-hour proliferation
Counter-ions that a name gives are not always drawn.
quantity-kind: Best CI

- CS(=O)(=O)CCNCc1ccc(-c2ccc3ncnc(Nc4ccc(OCc5cccc(F)c5)c(Cl)c4)c3c2)o1 [Lapatinib Ditosylate]: 0.45
- N.N.[Cl][Pt][Cl] [Cisplatin]: 0.34
- N.N.O=C([O-])C1(C(=O)[O-])CCC1.[Pt+2] [Carboplatin]: 1.12
- CC(=O)O[C@H]1C(=O)[C@@]2(C)[C@H]([C@H](OC(=O)c3ccccc3)[C@]3(O)C[C@H](OC(=O)[C@H](O)[C@@H](NC(=O)c4ccccc4)c4ccccc4)C(C)=C1C3(C)C)[C@]1(OC(C)=O)CO[C@@H]1C[C@@H]2O [Paclitaxel, reference compound]: 0.07
- CC/C(=C(\c1ccccc1)c1ccc(OCCN(C)C)cc1)c1ccccc1 [Tamoxifen Citrate]: 0.45

---

Test system: panel of breast cancer cell lines
test: Compound A with targeted agents and chemotherapies, 72-hour in vitro proliferation assays
Format: cell-based
measurement-context: CAL-120 cell line; compound A × partner; 72-hour proliferation
Structures can show the parent of a compound that is named as a salt.
Here, each record is paired with measured HSA volume data.
quantity-kind: HSA volume

* CC(=O)c1c(C)c2cnc(Nc3ccc(N4CCNCC4)cn3)nc2n(C2CCCC2)c1=O [PD-0332991] | −7.17
* N.N.O=C([O-])C1(C(=O)[O-])CCC1.[Pt+2] [Carboplatin] | −1.52
* CN(C)C(=O)c1cc2cnc(Nc3ccc(N4CCNCC4)cn3)nc2n1C1CCCC1 [LEE011] | −5.68
* O=C(c1cc(Cc2n[nH]c(=O)c3ccccc23)ccc1F)N1CCN(C(=O)C2CC2)CC1 [Olaparib] | −3.93
* CO[C@H]1C[C@@H]2CC[C@@H](C)[C@@](O)(O2)C(=O)C(=O)N2CCCC[C@H]2C(=O)O[C@H]([C@H](C)C[C@@H]2CC[C@@H](OCCO)[C@H](OC)C2)CC(=O)[C@H](C)/C=C(\C)[C@@H](O)[C@@H](OC)C(=O)[C@H](C)C[C@H](C)/C=C/C=C/C=C/1C [Everolimus] | −1.61
* CC(=O)O[C@@]12CO[C@@H]1C[C@H](O)[C@@]1(C)C(=O)[C@H](O)C3=C(C)[C@@H](OC(=O)[C@H](O)[C@@H](NC(=O)OC(C)(C)C)c4ccccc4)C[C@@](O)([C@@H](OC(=O)c4ccccc4)[C@H]21)C3(C)C [Docetaxel] | 7.98
* Cn1ncnc1[C@H]1c2n[nH]c(=O)c3cc(F)cc(c23)N[C@@H]1c1ccc(F)cc1 [BMN 673] | −7.12
* CCOc1cc2ncc(C#N)c(Nc3ccc(OCc4ccccn4)c(Cl)c3)c2cc1NC(=O)/C=C/CN(C)C [Neratinib] | 4.29
* CC(C)NC[C@@H](C(=O)N1CCN(c2ncnc3c2[C@H](C)C[C@H]3O)CC1)c1ccc(Cl)cc1 [GDC-0068] | −0.50
* CC1(C)CCC(CN2CCN(c3ccc(C(=O)NS(=O)(=O)c4ccc(NCC5CCOCC5)c([N+](=O)[O-])c4)c(Oc4cnc5[nH]ccc5c4)c3)CC2)=C(c2ccc(Cl)cc2)C1 [ABT-199] | −1.21
* CC1(C)CCC(c2ccc(Cl)cc2)=C(CN2CCN(c3ccc(C(=O)NS(=O)(=O)c4ccc(N[C@H](CCN5CCOCC5)CSc5ccccc5)c(S(=O)(=O)C(F)(F)F)c4)cc3)CC2)C1 [ABT-263] | 15.51
* N.N.[Cl][Pt][Cl] [Cisplatin] | 0.51
* C[C@]12CC[C@@H]3c4ccc(O)cc4C[C@@H](CCCCCCCCC[S+]([O-])CCCC(F)(F)C(F)(F)F)[C@H]3[C@@H]1CC[C@@H]2O (stereo partly shown) [Fulvestrant] | −4.48
* CCN1CCN(Cc2ccc(Nc3ncc(F)c(-c4cc(F)c5nc(C)n(C(C)C)c5c4)n3)nc2)CC1 [Abemaciclib] | −5.98
* Cc1c(-c2ccc(N3CCc4cccc(C(=O)Nc5nc6ccccc6s5)c4C3)nc2C(=O)O)cnn1CC12CC3CC(CC(C3)C1)C2 [Compound A-1331852] | 26.51
* Nc1ccn([C@@H]2O[C@H](CO)[C@@H](O)C2(F)F)c(=O)n1 [Gemcitabine Hydrochloride] | −5.87

---

System: panel of breast cancer cell lines
test: Compound A with targeted agents and chemotherapies, 72-hour in vitro proliferation assays
Assay type: cell-based
measurement-context: BT-474 cell line; compound A × partner; 72-hour proliferation
Decision: Bliss Volume compared against 3; not below it gives 1.0, below it gives 0.0.

• N.N.O=C([O-])C1(C(=O)[O-])CCC1.[Pt+2] = 0.0
• CC(=O)O[C@@]12CO[C@@H]1C[C@H](O)[C@@]1(C)C(=O)[C@H](O)C3=C(C)[C@@H](OC(=O)[C@H](O)[C@@H](NC(=O)OC(C)(C)C)c4ccccc4)C[C@@](O)([C@@H](OC(=O)c4ccccc4)[C@H]21)C3(C)C = 1.0
• CO[C@H]1C[C@@H]2CC[C@@H](C)[C@@](O)(O2)C(=O)C(=O)N2CCCC[C@H]2C(=O)O[C@H]([C@H](C)C[C@@H]2CC[C@@H](OCCO)[C@H](OC)C2)CC(=O)[C@H](C)/C=C(\C)[C@@H](O)[C@@H](OC)C(=O)[C@H](C)C[C@H](C)/C=C/C=C/C=C/1C = 1.0
• N.N.[Cl][Pt][Cl] [Cisplatin] = 0.0
• C[C@]12CC[C@@H]3c4ccc(O)cc4C[C@@H](CCCCCCCCC[S+]([O-])CCCC(F)(F)C(F)(F)F)[C@H]3[C@@H]1CC[C@@H]2O (some centres unmarked) = 0.0
